These entries and their values trace back to ChEMBL document CHEMBL1201862.

Endpoint: GI50. System: HCT-15. Items follow.
property-label: GI50 (µM)

CCOc1ccc(N/C(=C(/C(Cl)=C(/Cl)NC(C)(C)C)[N+](=O)[O-])n2nnc3ccccc32)cc1 ... 20.4
Cc1occc1C(=S)Nc1ccc(Cl)c(C(=O)OC(C(C)C)C(C)C)c1 ... 13.1
CC(C)=CCC[C@@H](C)C1=C(Nc2ccccc2)C(=O)C(C)=C(O)C1=O ... 0.875

----------
# Test system: IGROV-1
# assay-protocol: NCI tumour cell line growth inhibition, 48 h
The source made the active and inactive calls. Rule as the data show it: active = GI50 up to about 1.1 µM and inactive = higher.
Classes used: Yes (active), No (inactive)

CC(=O)n1nc(-c2nc3ccccc3nc2Cl)cc1Cl ... No
CC(C)NCCCNc1c2ccccc2nc2cccc([N+](=O)[O-])c12 ... Yes
CSC(=S)N(C)C ... No
CC1=C(C(=O)Nc2ccccc2)C(c2ccccc2Cl)C(C(=O)Nc2ccccc2)=C(C)N1 ... No
N#CC(C#N)=C/C=C(\Sc1c(Cl)c(Cl)nc(Cl)c1Cl)c1ccc(Cl)cc1 ... No
Sc1nnc(Cc2ccc(Cl)cc2)[nH]1 ... No
CN(C)c1ccccc1CN1CCCN(Cc2ccccc2N(C)C)C1c1ccncc1 ... No
CCOC(=O)/C(C(=O)Nc1cccc(C(F)(F)F)c1)=C(/N)N1CCOCC1 ... No
CC(C)(O)[C@@H]1CC[C@](C)(C2[C@@H](O)C[C@@]3(C)C4C[C@H](OC5OCC(O)C(O)C5O)[C@H]5C(C)(C)[C@@H](OC6OCC(O)C(O)C6OC6OCC(O)C(O)C6O)CC[C@@]56C[C@@]46CC[C@]23C)O1 (stereo partly specified) ... No
O=C(CCN1CCOCC1)C(=Cc1ccccc1)C(=O)CCN1CCOCC1 ... No
CN1C(c2ccccc2)CC(=Nc2ccccc2)CC1c1ccccc1 (stereo unspecified) ... No
O=C(NC(Cc1ccccc1)P(=O)(O)c1ccccc1)OCc1ccccc1 (stereo unspecified) ... No
Cc1cc(C)c(-c2noc(-c3ccc(Cl)cc3)c2C2=NCCN2)c(C)c1 ... No
CC(C)(Cl)C(Cl)CC/C(CBr)=C(\Cl)CBr (stereo unspecified) ... No
CC1(C)N=C(N)N=C(N)N1c1cccc(OCc2cccc([N+](=O)[O-])c2)c1 ... No
C=CCC1(OC(C)=O)C2OC(=O)C1(O)OCC2O (stereo unspecified) ... No
CCOC(=O)/C=C/[C@@H](CC)O[Si](C(C)C)(C(C)C)C(C)C ... No
c1ccc2c(c1)SC(=C1Sc3ccccc3S1)S2 ... No
COc1cc(C[S+]2CCCC2)c(SC)cc1C[S+]1CCCC1 ... No
CC1=C(C(=O)OC23CC4CC(CC(C4)C2)C3)C(c2ccccc2OC(F)F)C(C(=O)OC23CC4CC(CC(C4)C2)C3)=C(C)N1 (stereo unspecified) ... No
CN(C)c1cccc(OC(=O)NCCCl)c1 ... No

----------
# System: SF-539
# assay-protocol: NCI tumour cell line growth inhibition, 48 h
Activity calls are given as the source filed them. Rule as the data show it: active = GI50 up to about 1.1 µM and inactive = higher.
Classes used: active, inactive

CC[C@H]1CN2CCc3cc(OC)c(OC)cc3[C@@H]2C[C@@H]1C[C@H]1NCCc2c1[nH]c1ccc(O)cc21 ... active
N#Cc1c(/C=C/c2ccccc2)c2c([nH]c1=S)CCCCC2 ... inactive
Cc1occc1C(=S)Nc1ccc(Cl)c(C(=O)OC(C(C)C)C(C)C)c1 ... inactive
C[C@H](CCC(=O)O)[C@H]1CC[C@H]2[C@@H]3[C@@H](O)C[C@@H]4C[C@H](O)CC[C@]4(C)[C@H]3CC[C@]12C ... inactive
C=CCn1c(-c2ccc([N+](=O)[O-])cc2)cs/c1=N\C(P(=O)(O)O)P(=O)(O)O ... inactive
CNc1nc2c(C)ccc3nc(N(C)C)nc-3c2n1C ... inactive
CCCCCCCCCCCCCCCCCCNc1nc(=O)n(C2CC(O)C(COP(=O)(O)OCC3OC(n4ccc(N)nc4=O)C(O)C3O)O2)cc1F (stereo not given) ... inactive
CC(C)(C)C1CCC(O)(c2ccccc2)CC1 (stereo not given) ... inactive
Cc1cccc2c1C(=O)C(C1OC(=O)c3ccccc31)C2 (stereo not given) ... inactive
COc1cccc(-n2c3nc(=O)n(C)c(=O)c-3nc3ccccc32)c1 ... inactive
O=C1c2cc(-c3ccccc3)cnc2S(=O)(=O)N1c1ccc(Br)cc1 ... inactive
CN(C)/C=N/c1nc2c(ncn2C2OC(CO)C(O)C2O)c(=O)[nH]1 (stereo not given) ... inactive
CC(=O)Oc1ccccc1 ... inactive
CC/C(C)=C1\CCC(CN2CCOCC2)C1=O (stereo not given) ... inactive
O=c1cccc(C2CC(CO)C3CCCCN3C2)[nH]1 (stereo not given) ... inactive
Cc1cc2cc3c(cc2c(-c2ccc(N)cc2)n1)OCO3 ... inactive
COc1ccc2c3c1OC1C34CCN(C)C(C2)C4=CC(I)C1(OC)OC (stereo not given) ... inactive
NC1=NC(c2ccc(Cl)cc2)N(c2ccc(S(N)(=O)=O)cc2)C(N)=N1 (stereo not given) ... inactive
CN1CCC(SC2Cc3cc(Cl)ccc3Sc3ccccc32)CC1 (stereo not given) ... inactive
Nc1c(C(=O)c2ccccc2)[nH]c(NCc2ccccc2)c1C(=S)Nc1ccccc1 ... inactive
